This collection of values is drawn from patent US20200017592A1.

# Study target: T1, human IL-36R extracellular domain expressed with a C-terminal myc-myc-hexahistidine tag (hIL-36R-MMH) (human, UniProt Q9HB29 20-337)
# T1 construct: also called Human IL-36R-MMH; REGN2105
# T1 sequence (Q9HB29 other isoform, or with tags, fused parts or gaps limits assumed): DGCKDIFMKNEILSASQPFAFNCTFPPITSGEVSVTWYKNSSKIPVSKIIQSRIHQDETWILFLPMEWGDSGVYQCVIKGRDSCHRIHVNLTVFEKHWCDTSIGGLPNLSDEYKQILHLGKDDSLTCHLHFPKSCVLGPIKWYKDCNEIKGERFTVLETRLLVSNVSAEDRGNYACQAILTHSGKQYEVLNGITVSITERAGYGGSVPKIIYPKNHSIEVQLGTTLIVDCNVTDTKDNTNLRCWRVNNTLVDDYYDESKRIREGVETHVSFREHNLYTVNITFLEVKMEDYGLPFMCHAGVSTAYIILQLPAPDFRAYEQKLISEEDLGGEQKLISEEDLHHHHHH
# Procedure text: SPR Biacore T200, mAb captured on anti-hFc, 25C, PBS-T pH 7.4 running buffer
Observation type: t1/2

H4H14731P (antibody, human IgG4 S228P, kappa, V domains shown, Fully human anti-IL-36R antibody) VH: QLQLQESGPGLVKPSETLSLTCTVSGGSISSSNYYWGWIRQPPGKRLEWIGSIYYSGSTYYNPSLKTRVTISVDTSKNQFSLKLTSVTAADTAVYYCAREEAAALTHFDFWGQGTLVTVSS VL: DIQMTQSPSSLSASVGDRVTITCRASQSISNYLNWYQQKPGKAPKLLIFAASSLQSGVPSRFSGSGSGTDFTLTISSLQPEDFATYYCQHSHSSHPITFGQGTRLEIKR	21 min

With those in mind, consider the next binder.
INPUT: Consider the binder H4H14706P2 (antibody, human IgG4 S228P, kappa, V domains shown, Fully human anti-IL-36R antibody) VH: EVQLVESGGGLVQPGRSLRLSCTASGFTFDDYAIHWVRQSPGKGLEWVSVISWNSDVIGYADSVKGRFTISRDNAKNSLYLQMNSLRAEDTALYYCAKGYNWNFFDYWGQGTLVTVSS VL: EIVLTQSPATLSLSPGERATLSCRASQSVSSYLAWYQQKPGQAPRLLIYNAANRATDIPARFSGSGSGTDFTLTISSLEPEDFAVYYCQQRSNWPLTFGGGTKVEIKR and give its measured t1/2.
OUTPUT: 19 min
